- measured_target: Duck hepatitis virus polymerase (Duck hepatitis B virus, UniProt P03162)
- Sequence (P03162 whole entry): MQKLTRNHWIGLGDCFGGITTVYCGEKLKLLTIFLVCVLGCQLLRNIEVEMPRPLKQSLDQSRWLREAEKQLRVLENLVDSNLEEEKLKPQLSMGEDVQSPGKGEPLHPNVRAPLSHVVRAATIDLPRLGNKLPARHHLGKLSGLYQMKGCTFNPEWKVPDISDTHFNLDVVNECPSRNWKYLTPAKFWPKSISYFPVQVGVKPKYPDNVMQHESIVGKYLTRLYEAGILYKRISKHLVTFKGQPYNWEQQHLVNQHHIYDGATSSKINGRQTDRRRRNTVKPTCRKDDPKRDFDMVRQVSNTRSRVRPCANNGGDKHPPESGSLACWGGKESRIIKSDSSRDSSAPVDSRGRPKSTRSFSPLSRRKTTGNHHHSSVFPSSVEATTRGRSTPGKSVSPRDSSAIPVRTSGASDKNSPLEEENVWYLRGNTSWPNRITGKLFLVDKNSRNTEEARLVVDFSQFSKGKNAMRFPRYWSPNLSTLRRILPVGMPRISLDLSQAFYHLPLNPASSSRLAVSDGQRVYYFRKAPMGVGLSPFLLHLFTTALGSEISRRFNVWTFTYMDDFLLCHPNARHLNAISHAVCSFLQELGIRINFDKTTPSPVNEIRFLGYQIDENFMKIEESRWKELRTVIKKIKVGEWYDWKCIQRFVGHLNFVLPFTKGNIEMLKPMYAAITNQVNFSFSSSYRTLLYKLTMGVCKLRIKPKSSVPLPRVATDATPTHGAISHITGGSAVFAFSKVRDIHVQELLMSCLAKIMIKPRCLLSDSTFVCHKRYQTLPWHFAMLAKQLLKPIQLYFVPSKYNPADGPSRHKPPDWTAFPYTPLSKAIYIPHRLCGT
- run_description: Inhibition of duck hepatitis B virus polymerase (reverse transcriptase) using DNA and RNA templates
- Type: biochemical
- particulars: RNA template; compounds used as 5'-triphosphates; read-out: IC50, duck hepatitis virus polymerase, RNA template
So I've got a bunch of compounds here, and I need their IC50 values.
Give bare numbers, in nM.

CC=Cc1cn([C@@H]2O[C@H](CO)[C@@H](O)[C@@H]2O)c(=O)[nH]c1=O    540
CC=Cc1cn([C@H]2C[C@H](O)[C@@H](CO)O2)c(=O)[nH]c1=O    150
CCc1cn([C@H]2C[C@H](O)[C@@H](CO)O2)c(=O)[nH]c1=O    740

Now turn to the next compound.
-- ask # get_value(readout= IC50, system= Duck hepatitis virus polymerase (Duck hepatitis B virus, UniProt P03162)) for O=c1[nH]c(=O)n([C@H]2C[C@H](O)[C@@H](CO)O2)cc1CO [5-hydroxymethyl-2'-deoxyuridine]
-- reply 240
